Biological target: recombinant HA of influenza B virus B/Wisconsin/10 (Yamagata clade) (influenza B virus B/Wisconsin/10 …)
Test: recombinant HA ELISA (AttoPhos fluorescence, mean of triplicates)
experimental_readout: fold reactivity over background
Please answer using the number first and the unit second.

Consider the following illustrative entries.
Exercise: Can you share its fold reactivity over background? I mean this binder: TRL842 (antibody, V domains shown) VH: QVQLLESGGDVVQPGTSLRLSCAASGFSLWTSGMHWVRQAPGKGLEWVAVMSYDETKKYYADSVRGRFSISRDNSRNTLYLQMNSLRVEDTAVYFCAKPRLDYLDYFHAADSWGQGTLVSVSS VL: DIVLTQPPSVSVAPGQTATITCGGNYIGSKSVNWYQQRPGHAPVLVVYDDSDRPSGIPDRFSGSNSRSTATTATLTISRVEAGDEADYYCQVWETSEDLWVFGGGTKLTVLG
Solution: 25.6 fold over background

Exercise: // repeat for TRL849 (antibody, V domains shown) VH: QVQLVESGPGLVKPSQTLSLTCTVSGGSISNGGYHWSWIRQHPGKGLEWIGNIYYRGSTFYDPSLKSRVTISVDTSKSQFSLKLTSVTAADTAVYYCARMPLANYDLLTGLYIGAFDLWGQGTMVTVSS VL: DIVLTQSPATLSVSPGERATLSCRASQSVNRNLAWFQQIPGQAPRLLIFDASTRAADIPARFSGGGSGAEFTLTVSSLQPEDFAVYYCQQYDKWPPGFGQGTKVEIKR and report
Solution: 25.6 fold over background

Exercise: // repeat for TRL579 (antibody, V domains shown) VH: QVQLVQSGAEVKKPGASVKVSCKTSGYTFTAYTIHWVRQAPGQRLEWMGWINAGNGHTKYSQRFKGRVTITRDTSARTTYMELRSLTSEDTALYFCARGPETYYYDKTNWLNSHPDEYFQHWGHGTQVTVSS VL: DIQMTQSPSTLSASVGDRVTITCRASQTINNYLAWYQQKPGKAPKLLIYKASSLESGVPSRFSGSGSGTEFTLTISSLQPDDFATYYCQEYNNDSPLTFGGGTKVEIKR and report
Solution: 1 fold over background

Exercise: // repeat for TRL809 (antibody, V domains shown) VH: QVQLLESGGGVVRPGRSLRLACAGSGFTFSAYAMHWVRQAPGKGLEWVAHTSYDGRDSYYVDSVKGRFTISRDDSKNTLYLQMNSLRPEDTAVYYCAKVGPYTGYDDYNYYGMDVWGHGTTVTVSS VL: DIVLTQSPVSLAVSLGESATVNCKSSQSVLSNSKNLNYLAWYQHKPGQPPKLLIYWASTRESGVPDRFSGSGSGTDFTLTISSLQAEDVAVYYCQQHYSIPLTFGPGTKVDIKR and report
Solution: 25.6 fold over background

---
Exercise: Can you share its fold reactivity over background? I mean this binder: TRL854 (antibody, V domains shown) VH: QVQLVESGAEVKKPGASVRVSCKGSGYTFTAYHMHWVRQAPGQGFEWVGWINPNSGATYYTSTFEGRVTMTRDTSITTAYMELSSLRSDDTAVYYCATDIVVERDASLGGFNSYGMDVWGQGTTVTVSS VL: DIEMTQSPLSLPVTPGEPASISCRSSQSLLHSNGYNHLAWYLQKPGRSPHLLIYLASTRASGVPDRFSGSGSGTDFTLKISRVEAEDVGIYYCMQSLQTSITFGQGTRLEIKR
Solution: 25.6 fold over background
